- System: Rattus norvegicus
- method_description: Clearance in Sprague-Dawley rat at 1 mg/kg, iv
- Format: ADME, organism-based
- Design: dose 1 mg/kg, route intravenous
- setup_conditions: in vivo
Parameter clearance: see the listing below.
Number in mL/min/kg, nothing else.

>  <molecule>
Cc1ccc2c(c1)[C@]1(C[C@H]1c1ccc3c(/C=C/c4ccc(CN5CCOCC5)cc4)n[nH]c3c1)C(=O)N2

>  <measurement_type>
clearance

>  <val>
58.3

$$$$
>  <molecule>
O=C1Nc2ccccc2[C@]12C[C@H]2c1ccc2c(/C=C/c3ccc(CN4CCOCC4)cc3)n[nH]c2c1

>  <measurement_type>
clearance

>  <val>
53.3

$$$$
>  <molecule>
COc1ccc2c(c1)[C@]1(C[C@H]1c1ccc3c(/C=C/c4ccc(CN5C[C@@H](C)O[C@@H](C)C5)cc4)n[nH]c3c1)C(=O)N2 [OCIFISERTIB]

>  <measurement_type>
clearance

>  <val>
31.7

$$$$

Let us examine a further case.
**Q:** Return value of clearance for input COc1ccc2c(c1)[C@]1(C[C@H]1c1ccc3c(/C=C/c4ccc(CN5CCOCC5)cc4)n[nH]c3c1)C(=O)N2 , no commentary.
**A:** 66.7
